The measured values listed here are drawn from PubChem BioAssay AID1159580.

MEASUREMENT_NOTES: chemical genetic growth profiling, strain panel (AID 1159580);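 note: tested at 20 µM; growth read once vehicle control cultures reached saturation at 30 °C; 1 = growth at the plate median or of vehicle wells; lower values mean less growth of the strain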
RUN_CONDITIONS: S. cerevisiae deletion strains, growth OD, locus YLR058C, strain SHM2, active compounds read low
The whole screen tested about 5,500 compounds, of which about 2,000 (36%) were called active. Roughly 18% stayed inconclusive and do not appear here. The list shows a part of the results.
Consider the following molecules; for each one, report its normalized growth.
One number for each entry.

{"columns": ["MOLECULE", "RECORDED_RESULT"],
 "data": [
  ["O=C(/C=C/c1ccccc1)c1ccc(O[C@@H]2O[C@H](CO)[C@@H](O)[C@H](O)[C@H]2O)cc1O", 0.93]
]}

Kindly give each listed record's normalized growth.
1. O=C(CCc1ccc(O)cc1)c1c(O)cc(O)cc1O
2. CC(=O)O[C@@H]1C2CC[C@@H]3C1(C[C@@H](O)[C@@]1(O)[C@@H](C[C@H](O)C1(C)C)[C@]3(C)O)C[C@@]2(C)O (stereo not given in full)
3. CCCc1ncc(C[n+]2ccccc2C)c(N)n1
4. CC(=O)OC1CCC2(O)CC1(C)CCC1C2CC1(C)C (stereo not given)
5. O=c1c(O)cccc2cc(O)c(O)c(O)c12

1.01
0.993
1.01
0.978
0.22

Kindly give each listed record's normalized growth.
1. O=C(/C=C/c1ccc(O)cc1)c1ccc(O)cc1O
2. O=C(O)CCC(=O)OC[C@@H](NC(=O)C(Cl)Cl)[C@H](O)c1ccc([N+](=O)[O-])cc1
3. COc1ccc(/C=C/c2cc(O)cc(O[C@@H]3O[C@H](CO)[C@@H](O)[C@H](O)[C@H]3O)c2)cc1
4. COc1cc2c(cc1OC)C(C)NCC2 (stereo not given)

[1.01, 0.976, 0.986, 0.996]
